# test_system: Spindlin-3 (Homo sapiens, UniProt Q5JUX0)
# Sequence (Q5JUX0 whole entry, the tested form may be a part): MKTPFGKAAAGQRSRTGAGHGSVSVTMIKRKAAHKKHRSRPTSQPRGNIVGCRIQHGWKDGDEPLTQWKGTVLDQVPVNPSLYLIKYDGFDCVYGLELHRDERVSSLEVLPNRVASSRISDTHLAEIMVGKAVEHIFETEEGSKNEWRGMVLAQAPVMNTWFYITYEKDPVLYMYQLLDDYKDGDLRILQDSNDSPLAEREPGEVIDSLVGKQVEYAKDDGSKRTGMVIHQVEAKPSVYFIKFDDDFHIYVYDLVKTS
# test_protocol: Inhibition of recombinant human N-terminal His6-tagged SPIN3 (27 to 258 residues) expressed in Escherichia coli BL21 (DE3) cells assessed as dissociation constant by isothermal titration calorimetry
reported_property: Kd

Task: // returns reported Kd for input COc1c(CN)cc(CN)cc1OCCCN1Cc2ccccc2C1
Output: 0.17 to 1.7 µM

====

# test_system: Spindlin-1 (Homo sapiens, UniProt Q9Y657)
# Sequence (Q9Y657 whole entry): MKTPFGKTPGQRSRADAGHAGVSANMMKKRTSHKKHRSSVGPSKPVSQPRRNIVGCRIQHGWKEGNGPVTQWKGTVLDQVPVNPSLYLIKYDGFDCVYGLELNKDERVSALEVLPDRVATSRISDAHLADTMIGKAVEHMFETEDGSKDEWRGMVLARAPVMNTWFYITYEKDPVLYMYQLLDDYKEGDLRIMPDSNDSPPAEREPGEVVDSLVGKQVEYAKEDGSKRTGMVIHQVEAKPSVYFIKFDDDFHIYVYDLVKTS
# test_protocol: biochemical
reported_property: IC50

Task: What does the record list as IC50 for COc1c(CN)cc(CN)cc1OCCCN1CCCC1 ?
Output: 741 nM

====

# test_system: Spindlin-4 (Homo sapiens)
# Sequence (Q56A73 whole entry): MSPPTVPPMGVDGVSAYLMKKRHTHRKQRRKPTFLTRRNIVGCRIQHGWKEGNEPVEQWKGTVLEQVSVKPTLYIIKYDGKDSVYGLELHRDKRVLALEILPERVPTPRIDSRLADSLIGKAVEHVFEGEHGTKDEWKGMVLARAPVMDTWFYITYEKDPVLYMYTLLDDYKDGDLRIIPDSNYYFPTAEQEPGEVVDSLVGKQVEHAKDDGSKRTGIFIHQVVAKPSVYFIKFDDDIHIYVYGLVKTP
# test_protocol: Inhibition of recombinant human N-terminal His6-tagged SPIN4 (36 to 249 residues) expressed in Escherichia coli BL21 (DE3) cells assessed as dissociation constant by isothermal titration calorimetry
reported_property: Kd

Task: // returns reported Kd for input COc1c(CN)cc(CN)cc1OCCCN1Cc2ccccc2C1
Output: 0.17 to 1.7 µM

====

# test_system: Spindlin-2B (Homo sapiens, UniProt Q9BPZ2)
# Sequence (Q9BPZ2 whole entry, the tested form may be a part): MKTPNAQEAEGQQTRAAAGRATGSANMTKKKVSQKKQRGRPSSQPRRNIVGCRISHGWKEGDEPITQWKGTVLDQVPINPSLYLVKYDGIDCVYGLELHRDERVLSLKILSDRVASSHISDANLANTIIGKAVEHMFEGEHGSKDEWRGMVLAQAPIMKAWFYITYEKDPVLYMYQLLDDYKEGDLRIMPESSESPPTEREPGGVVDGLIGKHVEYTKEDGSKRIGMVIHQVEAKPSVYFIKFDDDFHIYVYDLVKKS
# test_protocol: Inhibition of recombinant human N-terminal His6-tagged SPIN2B (45 to 258 residues) expressed in Escherichia coli BL21 (DE3) cells assessed as dissociation constant by isothermal titration calorimetry
pKd: −log10 of the molar value.
reported_property: pKd

Task: Please provide the recorded pKd for COc1c(CN)cc(CN)cc1OCCCN1Cc2ccccc2C1 , tested on Spindlin-2B (Homo sapiens, UniProt Q9BPZ2).
Output: 5.77 to 6.77
